Structures can show the parent of a compound that is named as a salt.
melting point values, listed per item

Below: 5 compounds and their reported melting point.
compound=CCCCOc1ccc(N(C)CCC2(O)CCN(Cc3ccc(C(=O)OC)cc3)CC2)cc1 observed_property="melting point" assay_value="82.5 to 82.8 °C"
compound="CC(C)Oc1ccc(N(C)CCC2(O)CCN(Cc3ccc(C(F)(F)F)cc3)CC2)cc1 [Example 74]" observed_property="melting point" assay_value="109.9 to 110.6 °C"
compound=COC(=O)c1cccc(CN2CCC(O)(CCN(C)c3ccc(OC(C)C)cc3)CC2)c1 observed_property="melting point" assay_value="53.8 to 54.7 °C"
compound=CSc1ccc(CN2CCC(O)(CCN(C)c3ccc(OC(C)C)cc3)CC2)cc1 observed_property="melting point" assay_value="66.2 to 68 °C"
compound="CCCCOc1ccc(N(C)CCC2(OC)CCN(Cc3ccccc3)CC2)cc1 (as salt: hydrochloride) [Example 201, dihydrochloride]" observed_property="melting point" assay_value="215 °C (dec.)"

What does the record list as melting point for `COc1ccc(CN2CCC(O)(CCN(C)c3ccc(OC(C)C)cc3)CC2)cc1` ? 50.8 to 52.4 °C

Looking for the measured melting point of CCCCOc1ccc(N(C)CCC2(O)CCN(Cc3ccc4c(c3)OCO4)CC2)cc1 (as salt: hydrochloride) [Example 162, dihydrochloride] , can you help? 211 °C (dec.)

Looking for the measured melting point of CCCCOc1ccc(N(C)CCC2(O)CCN(CC(O)c3ccc(F)cc3)CC2)cc1 (stereo not drawn) (as salt: hydrochloride) [Example 198, dihydrochloride] , can you help? 174.9 to 184.5 °C

Any idea what melting point was measured for CCCCOc1ccc(N(C)CCC2(O)CCN(CCc3ccc(F)cc3F)CC2)cc1 (as salt: hydrochloride) [Example 183, dihydrochloride] ? 209 °C (dec.)

Which melting point value belongs to `CC(C)Oc1ccc(N(C)CCC2(O)CCN(Cc3ccc(F)c(C(F)(F)F)c3)CC2)cc1` ? 58.8 to 62.8 °C
